B1: TPR t1 (parent)
chain: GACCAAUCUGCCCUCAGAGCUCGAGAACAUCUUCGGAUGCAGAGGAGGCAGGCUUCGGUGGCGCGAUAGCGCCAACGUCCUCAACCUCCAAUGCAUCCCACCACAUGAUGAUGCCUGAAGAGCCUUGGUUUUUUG

- Variants of: B1
- Protocol details: polymerase ribozyme fitness, log enrichment relative to wild type (log ratio); higher = more active; in vitro selection for triplet polymerase activity
Categorized via polymerase ribozyme fitness (log ratio): LOW = under -2, MEDIUM = from -2 up to -0.02, HIGH = -0.02 and over

Reference set, count: 3
{"Mutation list": "C70U C97U C123G U126A", "Category": "HIGH"}
{"Mutation list": "G60U A83U", "Category": "HIGH"}
{"Mutation list": "A68U G120A", "Category": "LOW"}

Query string: State the class of the variant shown: C115A U132A
Result string: HIGH

Query string: Query C15A G19A A50C A74G C102A C104A A121U U125G next
Result string: LOW

Query string: Param item: U21A A37U C72U
Result string: MEDIUM

Query string: Same again, this time with G19U U59A
Result string: LOW

Query string: Now consider G77U C123G .
Result string: HIGH

Query string: Same again, this time with A18C U109A
Result string: LOW

Query string: // repeat for C53A U87C and report
Result string: HIGH

Query string: Lookup C56U U67G G71A C80U G120C
Result string: LOW

Query string: Same thing, different variant: C3A G52U
Result string: MEDIUM

Query string: Now the variant C73G U129G
Result string: LOW

These data points were gathered from the RNAGym collection of RNA variant scans (doi:10.1073/pnas.2313332121).
